Listed here are compounds together with their documented melting point.

The compound C[C@@H]1CN(c2ccc(C(F)(F)F)cn2)CC[C@H]1Oc1cc(-c2cc(F)cc(F)c2)n[nH]1 (relative stereo) showed melting point equal to 136.9 to 137.6 °C

Documented melting point of CCCCn1nc(C(F)(F)F)cc1S(=O)(=O)C1CCN(c2ccc(C(F)(F)F)cn2)CC1 : 105.3 to 105.6 °C

----------
value_kind: melting point

Check out these entries, answers already filled in.
# compound, melting point
measured = [
    ("Cn1nc(C(F)(F)F)cc1OC1CCN(c2ccc(C(F)(F)F)cn2)CC1(C)C (stereo not drawn)", "102.5 to 103 °C"),
    ("Cn1nc(-c2cc(Cl)cc(Cl)c2)cc1OC1CCN(c2ccc(C(F)(F)F)cn2)CC1", "161.8 to 162.4 °C"),
]

# next compound below
The reported value for FC(F)(F)c1ccc(N2CCC(Oc3cc(C(F)(F)F)n[nH]3)CC2)nc1 in terms of melting point is 133.8 to 134.5 °C
